Assay: Acute Toxicity Test
Conditions: mouse, in vivo, ip, 14 days observation
Description: The test group to which the compound of the present invention was administered consisted of ten mice. Five weeks old male mice (ddY, 23±2 g of body weight) were employed as test animals.
ENDPOINT_NAME: LD50

1) CC(C)COC(=O)OCN1C(=O)CN(CCN2CC(=O)N(COC(=O)OCC(C)C)C(=O)C2)CC1=O: > 850 mg/kg
2) COC(=O)OCN1C(=O)CN(CCN2CC(=O)N(COC(=O)OC)C(=O)C2)CC1=O: ~500 mg/kg
3) CC(=O)OCN1C(=O)CN(CCN2CC(=O)N(COC(C)=O)C(=O)C2)CC1=O: > 1000 mg/kg
4) O=C1CN(CCN2CC(=O)N(CN3CCOCC3)C(=O)C2)CC(=O)N1CN1CCOCC1 [reference compound]: 280 mg/kg

Data origin, for the record: patent US4650799A
